- ASSAY: in vitro
- EXPERIMENTAL CONDITIONS: mouse, plasma
QUANTITY: remaining at 6 h (%)

P: COc1ccc(C(=O)N2CCOCC2)cc1S(=O)(=O)N(Cc1ccccc1)Cc1cnc(C(F)(F)F)nc1
Q: COc1ccc(C(=O)N2CCOCC2)cc1S(=O)(=O)N(Cc1ccc(F)cc1)Cc1ccc(C(F)(F)F)nc1
## Task Record comparison, field remaining at 6 h: mark the lower of P and Q . Identify your selection by its label.
## Result Q
(Q: 22%, P: 42%)
